Molecular target: PD-1 expressed on cells (human)
Sequence (chain, as listed by the source): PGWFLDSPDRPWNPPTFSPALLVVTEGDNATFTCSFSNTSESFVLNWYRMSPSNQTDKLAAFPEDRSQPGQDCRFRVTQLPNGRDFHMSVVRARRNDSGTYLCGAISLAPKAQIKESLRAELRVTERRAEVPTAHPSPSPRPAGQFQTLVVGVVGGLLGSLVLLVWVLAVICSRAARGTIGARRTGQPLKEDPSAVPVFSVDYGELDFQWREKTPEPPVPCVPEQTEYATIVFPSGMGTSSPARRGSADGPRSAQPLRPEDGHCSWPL
Test: flow cytometry, Jurkat/PD-1 cells
Measured MFI at 50 nM by item
The answer should be written as a number, with no unit following it.

A selection of reference data follows.
# Binder, MFI at 50 nM
records = [
    ("variant PD-L2 IgV-Fc I13V, H15Q, E44V, T47A, Q82R, V89D (Fc fusion) LFTVTVPKELYIVEQGSNVTLECNFDTGSHVNLGAITASLQKVVNDASPHRERATLLEEQLPLGKASFHIPQVQVRDEGQYRCIIIYGDAWDYKYLTLKVKA", 61000),
    ("variant PD-L2 IgV-Fc H15Q, C23S, I86T (Fc fusion) LFTVTVPKELYIIEQGSNVTLESNFDTGSHVNLGAITASLQKVENDTSPHRERATLLEEQLPLGKASFHIPQVQVRDEGQYQCIITYGVAWDYKYLTLKVKA", 830),
    ("variant PD-L2 IgV-Fc S67L, V89D (Fc fusion) LFTVTVPKELYIIEHGSNVTLECNFDTGSHVNLGAITASLQKVENDTSPHRERATLLEEQLPLGKALFHIPQVQVRDEGQYQCIIIYGDAWDYKYLTLKVKA", 16000),
]

# ---- query binder ----
In: Request the reported MFI at 50 nM associated with variant PD-L2 IgV-Fc H15Q, Q72H, Q74R, R76G, I86T (Fc fusion) LFTVTVPKELYIIEQGSNVTLECNFDTGSHVNLGAITASLQKVENDTSPHRERATLLEEQLPLGKASFHIPHVRVGDEGQYQCIITYGVAWDYKYLTLKVKA
Out: 4050
